The measured values listed here are drawn from patent US20180186897A1.

target or test system: erythrocytes infected with P. falciparum field isolate 9215
experiment: flow cytometry, staining of IEs
measured quantity: % parasite recognition (%)
Numbers only, in %.

binder	measured value
MGC33 (antibody) VH: EVHLVESGGGLVQPGGSLRLSCEASGFTFSSYWMTWVRQAPGKGLEWVANINQDGSERYYVDSVKGRFTISRDTVKNSLYLQMNNLRAEDTAVYYCARQRFCSDGSLFHGEDLPRPTISAETGTVISLGSHVTFVCRGPLGVQTFRLERESRSRYSETEDVSQVGPSESEARFRIDSVSEGNAGLYRCIYYKPPKWSEQSDYLELRVKGEDVTWALLTYCGGDRDESDYYMDVWGKGTTVTVSS VL: QTVVTQEPSLTVSPGGTVTLTCASSTGSVTSGSFPNWFQQTPGQAPRSLIYSTTKKHSWTPARFSGSLLGGKAALTVSDTQPEDEAEYYCLLYCGGGQPWVFGGGTKLTVQ	11.5
MGC17 (antibody) VH: EVQLVESGGGLVQPGGSLKLSCVASGFNFRKSWMSWVRQAPGKGLEWVANIREDGSKAYYVDSVKGRFTVSRDNAKNSLYLQINSLRADDTAVYYCARDRFCSDDEDHSHGAEDLPRPSISAEEGTVIPLGSRLTFVCRGPVGVHTFRLERDRRSTYNDTEDVSHPSPSESEARFRIDSVSEGNAGLYRCVYYKSPEWSKQSDYLELLVKGQEVTWALFTSCGGDGEVPDYDMDVRGKGTTVTVSS VL: DIVMTQSPDSLAVSLGERATINCKSSQSVLYRSKNKKYLAWFQQRPGQPPKVLIYWTSTRASGVPDRFSGSGSGTDFTLTISSLQADDVAVYYCQQYFIFPYTFGQGTKLEIR	16.7
MGD55 (antibody) VH: QVQLQESGPGLVKPSGTLSLTCTVSGGSISAYKWWSWVRQAPGKGLEWIGQVYHNGNTNYNPSLKGRVAMSVDKSKNRFSLRLASVTAADTAVYYCATISPLRPQSDTDDLPRPSISAEPGTVIPLGSHVTFVCRGPIGVQTFRLERESRSLYSDTEDVSQVSPFASEARFRIDSVSEGNAGPYRCIYYKDRKWSDQSDYLELLVKGEDVTWALPQSQLAPRACPQEELNISTDIFSMNVWGKGTTVTVSS VL: AIRMTQSPASLSASIGDRVTITCRTSQDVGNYLDWYQQKPGKAPKLLIHGASTLQTGVPSRFSGSGAGTDFTLNITCLQSGDFAMYYCQQYYSSPPGFGQGTRLEIK	38.8
MGC26 (antibody) VH: EVQLVDSGGGLVQPGGSLRLSCAASGFTFSTYWMTWVRQTPGKGLEWVASIKQDGTERYYVDSVKGRFIISRDNAKNSLYLQMHSLRAEDTAVYYCVRDRFCRDHMHIEEDLPRPSISPEPATVIPLGSHVTIVCRGPVGVETFRLQKESRSLYNDTEDVSQPSPSESEARFRIDSVSEGHGGLYRCLYYKSSKWSEQSDYLEMLVKGEDVTWALFPYCGGDGEESDYYMDVWGKGTTVTVSS VL: DIQLTQSPSTLSASVGDRVTISCRASQRLSRSLAWYQQRPRKAPNLLIYKASPLEIGGPSRFTGSGSGTEFTLTISSLQPDDSATYYCQQYSNYSYSFGQGTKLEIR	9.5
MGD33 (antibody) VH: HVQLQESGPGLVKPSETLSLSCAVTGGSITSSKWWTWVRQGPDKGLEWIGKIYHNGTTNYNPSLKSRVAMSVDKSKNQFSLRLTSVTAADTAVYYCATASPFKSHHRTTEKLPRPSISAEPGTVIPLGSRVTFVCRGPVGVQTFRLERETRSTYNDTEDVSQVSPSESEARFRIDSVSEGYAGPYRCVYYKAPKWSEQSDYLDLLVKGEDVTWALTQPQLDPRACPQGDLRMSTDIYCMDVWGKGTTVTVSS VL: AIRLTQSPSSLSASIGDRVTITCRASQDISTYLAWYQQESGKAPRLLIFAASSLQTGVPSRFSGSGSGTDFTLTISGLQSEDFATYYCQQYYCFPPDFGQGTRLDIK	15.5

Please give % parasite recognition, item by item, for the list that follows.
1. MGC28 (antibody) VH: EVQLVESGGGLVQPGGSLRLSCEASGFTFSSYWMTWVRQAPGKGLEWVANINQDGSERYYVDSVKGRFTISRDTVKNSLYLQMNNLRAEDTAVYYCARQRFCSDGSLFHGEDLPRPTISAETGTVISLGSHVTFVCRGPLGVQTFRLERESRSRYSETEDVSQVGPSESEARFRIDSVSEGNAGLYRCIYYKPPKWSEQSDYLELRVKGEDVTWALLTYCGGDRDESDYYMDVWGKGTTVTVSS VL: QTVVTQEPSLTVSPGGTVTLTCASSTGSVTSGSFPNWFQQTPGQAPRSLIYSTTKKHSWTPARFSGSLLGGKAALTVSDTQPEDEAEYYCLLYCGGGQPWVFGGGTKLTVL
2. MGC2 (antibody) VH: EVQLVESGGGLVQPGGSLRLSCAASGFTFSNFWMGWVRQTPGKGLEWVANIKEDGSEKYYVDSVRGRFTISRDSAKNSLYLQMNSLRAEDTAVYYCVRERFCSNHIHKEEHLPRPSISPEPGTVITLGSHVTFVCRGPVGVQTFRLEKDSRSTYNDTEDVSQPSPSESEARFRIDSVSEGYAGLYRCLYYKPPKWSEQSDYLELLVKGDDVTWALYPSCGGDGEASDYNMDVWGKGTTVTVSS VL: DIQMTQSPSTLSASVGDRVTISCRASQRFSGWLAWYQQKPGKAPNLLIYKASPLAGGGPSRFSGSGSGTDFTLTISSLQPDDSATYYCQHYSNYSYTFGQGTKLEIR

Response:
1: 10.8; 2: 28.8
